Biological target: Sentrin-specific protease 8 (Homo sapiens) (UniProt Q96LD8)
Sequence (Q96LD8 whole entry, looked up): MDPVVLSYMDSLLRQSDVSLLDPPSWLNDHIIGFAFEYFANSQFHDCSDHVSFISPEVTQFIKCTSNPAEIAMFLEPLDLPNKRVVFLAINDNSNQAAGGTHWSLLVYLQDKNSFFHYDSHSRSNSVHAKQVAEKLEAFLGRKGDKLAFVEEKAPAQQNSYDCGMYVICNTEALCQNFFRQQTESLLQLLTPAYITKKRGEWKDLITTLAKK
Assay: blockers of human SENP8 peptidase activity – biochemical, luminescence, primary screen (AID 2540)
Conditions: purified SENP8, Z-RLRGG-aminoluciferin cleavage, at 10 µM, stronger effect = higher value
In all, about 330,000 compounds went through this assay and about 4,100 (1.2%) were called active. The entries come from a sample that favours actives as a whole.
endpoint: inhibition (%)
Numeric answer only, unit % assumed.

Reference set, count: 2
# compound, endpoint, endpoint unit, observed value
rows = [
    ("CNC(C)C#Cc1ccc2sc3cc(OC)c(OC)cc3c(=O)c2c1 (centres undefined)", "inhibition", "%", 70.5),
    ("O=C(Nc1nc2ccc([N+](=O)[O-])cc2s1)c1ccncc1", "inhibition", "%", 87.5),
]

Query block: # inhibition lookup, item CC(C(=O)N1CCOCC1)N1c2cccc3cccc(c23)S1(=O)=O (centres undefined)
Result block: 3.41

Query block: inhibition for CCOc1c2ccc(C(=O)NC3CCCc4ccccc43)cc2nn1CC (centres undefined) ?
Result block: -8.27

Query block: May I ask what inhibition has been recorded for CCOC(=O)C1CCN(S(=O)(=O)c2ccc3c(c2)N(C(C)=O)CCO3)CC1 ?
Result block: -1.03

Query block: Query (compound): CCCCn1c(N)c(N(CC(C)C)C(=O)C2CSC3(C)CCC(=O)N23)c(=O)[nH]c1=O (centres undefined) ; field requested: inhibition
Result block: -4.36

Query block: Consider the compound shown here: COc1ccc(-n2nnnc2CNC(=O)c2ccc3ccccc3c2)cc1 What is its recorded inhibition?
Result block: -10.6

Query block: Tell me the measured inhibition of COc1ccccc1C1CC(=O)n2c(nc(-c3ccccc3)c2-c2ccccc2)S1 (centres undefined) , please.
Result block: -4.43

Query block: What value of inhibition has been reported for the following compound? COC(=O)Cc1ccc(OCC(=O)NC2CCCC2)cc1
Result block: -7.77

Query block: Which value of inhibition has been reported for O=C(Nc1nnc(C2CC2)s1)c1cc(Cl)sc1Cl in the records?
Result block: -4.61

Query block: Fill in the blank: the reported inhibition of O=C(NC(Nc1nc2ccc([N+](=O)[O-])cc2s1)(C(F)(F)F)C(F)(F)F)c1ccccc1 is ____.
Result block: -0.974

Query block: Given COc1ccc(-n2nnnc2-c2nc3ccccc3s2)cc1 , state its recorded inhibition.
Result block: 50.3

Query block: Quick one: inhibition for CCc1ccc2oc(-c3ccc(N)cc3)nc2c1 ?
Result block: 89.6

Query block: // query inhibition value for entry Nc1ccc(-c2nnc(-c3ccccc3)o2)cc1
Result block: 40

###

Listing of entries alongside the reported inhibition.
Molecular target: Sentrin-specific protease 8 (Homo sapiens) (UniProt Q96LD8)
Assay: blockers of human SENP8 peptidase activity – biochemical, luminescence, primary screen (AID 2540)
Conditions: purified SENP8, Z-RLRGG-aminoluciferin cleavage, at 10 µM, stronger effect = higher value
In all, about 330,000 compounds went through this assay and about 4,100 (1.2%) were called active. The sample holds actives, similar compounds and a random draw of the others, so the mix is not that of the screen.
Give a bare numeral; the unit % is implied.

# compound, target of assay, inhibition (%)
rows = [
    ("O=C(Nc1c2c(nn1-c1ccc(F)cc1)CS(=O)C2)C12CC3CC(CC(C3)C1)C2 (centres undefined)", "Sentrin-specific protease 8 (Homo sapiens) (UniProt Q96LD8)", -3.44),
    ("Cc1cccc(NC(=O)c2cc(N3C(=O)CCC3=O)ccc2Cl)n1", "Sentrin-specific protease 8 (Homo sapiens) (UniProt Q96LD8)", -1.19),
    ("CC(C)(C)c1cc(NC(=O)NN2CCOCC2)nn1-c1c(Cl)cc(Cl)cc1Cl", "Sentrin-specific protease 8 (Homo sapiens) (UniProt Q96LD8)", 1.46),
    ("CCN1CCCC1CNC(=O)Cn1cnc2ccc(S(=O)(=O)N3CCC(C)CC3)cc2c1=O (centres undefined)", "Sentrin-specific protease 8 (Homo sapiens) (UniProt Q96LD8)", 3.55),
]

Query block: Requested read-out: inhibition. Entry: O=C(COC(=O)c1cccnc1Cl)Nc1ccc(S(=O)(=O)N2CCOCC2)cc1
Result block: -1.74

Query block: Which measured inhibition value corresponds to CCOc1ccc(NC(=O)C/C(C)=N/NC(=O)Cc2cccs2)cc1 ?
Result block: -7.21

Query block: Which inhibition is reported for this compound? COc1ccc(SCCN2CCN(CC(C)C)CCC2=O)cc1
Result block: 5.29

Query block: If you can, please state the reported inhibition value of CCC(C)NC(=O)/C=C/c1ccc(S(=O)(=O)NCc2ccco2)cc1 (centres undefined) .
Result block: -7.51

Query block: Can you look up the measured inhibition of Cc1ccc(C(=O)N/C(=C/c2cccnc2)C(=O)O)cc1 for me?
Result block: -10.8

Data origin: PubChem BioAssay AID2540
